Value source: patent US20160015828A1

Listed below: Kd values for each entry.
tested target: T1, human DLL3 (UniProt Q9NYJ7 27-492)
T1 chain: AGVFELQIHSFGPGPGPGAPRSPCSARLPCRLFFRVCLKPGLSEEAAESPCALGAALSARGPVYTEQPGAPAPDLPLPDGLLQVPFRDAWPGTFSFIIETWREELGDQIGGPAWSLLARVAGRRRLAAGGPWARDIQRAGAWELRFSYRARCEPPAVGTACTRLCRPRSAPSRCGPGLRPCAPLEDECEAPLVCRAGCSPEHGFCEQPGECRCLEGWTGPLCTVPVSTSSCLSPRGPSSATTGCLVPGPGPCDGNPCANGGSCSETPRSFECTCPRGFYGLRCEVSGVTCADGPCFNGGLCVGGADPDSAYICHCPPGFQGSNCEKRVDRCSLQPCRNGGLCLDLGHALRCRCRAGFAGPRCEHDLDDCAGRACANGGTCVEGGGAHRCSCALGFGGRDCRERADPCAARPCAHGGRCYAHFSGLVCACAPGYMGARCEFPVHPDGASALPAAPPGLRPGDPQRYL
test details: BLI (ForteBio)
Value expressed in nM; do not type the unit.

Past entries and their recorded results:
binder	unit tag	Kd
SC16.8 (antibody, V domains shown, murine mAb; V regions only) VH: QAQLQQSGAELVRPGTSVKVSCKASGYAFTNYLIEWVKQRPGQGLEWIGVINPGTGGTNYNENFKGKATLTADKSSSTAYMQLSSLTSDDSAVYFCARSPYDYHEGAMDYWGQGTSVTVSS VL: EIQMTQSPSSMSASLGDRITITCQATQDIVKNLNWYQQKPGKPPSFLIYYAIELAEGVPSRFSGSGSGSDYSLTISNLESEDFADYYCLQFYEFPFTFGAGTKLELK	nM	0.5
SC16.67 (antibody, V domains shown) VH: EVQLVETGGGLVQPKGSLKLSCAVSAFTFTTYAMNWVRQAPGKGLEWVARIRNKSNNYATYYADSVKDRFTISRDDSQSMLYLQMNNLKIEDTAMYYCVFYYDYVYWGQGTLVTVSA VL: QAVVTQESALTTSPGETVTLTCRSSTGAVTTSNYANWIQEKPDHLFTGLIGGTNNRAPGVPARFSGSLIGDKAALTITGAQTEDEAIYFCGLWYSNHLVFGGGTKLTVL	nM	0.5

Consider the additional binder presented here.
Look up Kd for this binder: SC16.4 (antibody, V domains shown, murine mAb; V regions only) VH: QIQLVQSGPELKKPGETVKISCKASGYTFTDYSMHWVKQAPGKGLKWMGWINTETGEPGYADDFKGRFAFSLETSASTAYLQINNLKNEDTATYFCARYDGYAMDYWGQGTSVTVSS VL: DIQMTQTTSSLSASLGDRVTISCRASQDISNYLNWYQQKPDGTVKLLIYYTSRLHSGVPSRFSGSGSGTDYSLTISNLELEDIATYFCQQGDMLPWTFGGGTKLEIK
0.5
